Target Entity: T1, human FIP200 claw domain (1490-1594) (human, UniProt Q8TDY2 1490-1594)
T1 chain: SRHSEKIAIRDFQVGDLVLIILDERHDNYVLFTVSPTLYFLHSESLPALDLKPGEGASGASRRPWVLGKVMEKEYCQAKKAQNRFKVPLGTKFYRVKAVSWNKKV
Assay Overview: ITC
Square brackets hold non-standard residues; d marks the D form. Ends that are not written are not given here. pS = N[C@@H](COP(=O)(O)O)C(=O)O
Hi there, I'd appreciate the recorded Kd for every entry that follows.
One number for each entry, in µM.

Known results for binders:
[[record]]
binder = "SSGT[pS][pS]EFEVV [TNIP1_pS122pS123 peptide]"
unit_string = "µM"
value_observed = 195

[[record]]
binder = "SSGT[pS]SEFEVV [TNIP1_pS122 peptide]"
unit_string = "µM"
value_observed = 260


Here's the next entry for you.
Documented Kd of SSGTS[pS]EFEVV (FIR motif of TNIP1; source: synthetic peptide (GL Biochem, Shanghai)) [TNIP1_pS123 peptide] : 160
